# Test system: A498 renal
# testDescription: NCI tumour cell line growth inhibition, 48 h
parameter: TGI (µM)

>>> assayvalue("COc1cc(N)ccc1Nc1c2ccccc2nc2ccccc12")
22.4
>>> assayvalue("COc1cc(/C=C2\\C[C@H]3[C@@H]4CC=C5C[C@@H](OC(C)=O)CC[C@]5(C)[C@H]4CC[C@]3(C)[C@H]2OC(C)=O)ccc1OCCCn1ccnc1")
15
>>> assayvalue("Cc1cc(Nc2nc(N3CCOCC3)nc3ccccc23)n[nH]1")
5.33
>>> assayvalue("COc1nc(C#CCCCC#N)nc(OC)n1")
37.6

###

Item-by-item account of log10(TGI)
# System: A498 renal
# testDescription: NCI tumour cell line growth inhibition, 48 h
parameter: log10(TGI) (log10 of the value in µM)

>>> assayvalue("CCCCC1(OC(=O)CCC(=O)O)CCC2(CCC(C)C(C/C=C(C)/C=C/C(O)C(C)/C=C/C(=O)O)O2)OC1CC/C(C)=C/C(=O)O (stereo unspecified)")
1.10
>>> assayvalue("CCOC(=O)c1ccc2[nH]c(Cc3[nH]c4ccc(C(=O)OCC)cc4c3C)c(C)c2c1")
1.36
>>> assayvalue("O=C1c2scnc2-c2nccc3c2c1nc1ccccc13")
0.40
>>> assayvalue("CN(C)c1cccc(-c2cc(=O)c3cc4c(cc3[nH]2)OCO4)c1")
0.66
>>> assayvalue("O=C1C=CC(=O)N1c1ccc2c(c1)Cc1cc(NC(=O)C(F)(F)F)ccc1-2")
1.68
>>> assayvalue("COc1cc(C(=O)O)ccc1NC(=O)[C@@H]1N[C@@H](CC(C)(C)C)[C@](C#N)(c2ccc(Cl)cc2F)[C@H]1c1cccc(Cl)c1F")
0.45
>>> assayvalue("C=C1C(=O)O[C@H]2[C@H]1CC/C(COC(=O)N[C@@H](Cc1c[nH]c3ccccc13)C(=O)OC)=C\\CC[C@@]1(C)O[C@@H]21")
1.35
>>> assayvalue("NC(=Nc1ccc(Cl)c(Cl)c1)c1ccccc1N")
1.74
>>> assayvalue("N#CCc1[nH]nc2nc(SCc3ccccc3)nc(N3CCCCC3)c12")
1.87
>>> assayvalue("Fc1ccc(Nc2ccc3cc(OCCCN4CCOCC4)ccc3n2)cc1F")
0.88
>>> assayvalue("COc1cc2c(cc1OCCCCCN1CCN(c3cc(=O)oc4c(C)c(OC)ccc34)CC1)N=C[C@@H]1CCCN1C2=O")
-1.54
>>> assayvalue("O=C(/C=C/c1ccc2c(c1)OCO2)c1ccccc1")
1.40
>>> assayvalue("O=C(c1cccs1)c1c(C(F)(F)F)n([O-])c2cc(C(F)(F)F)ccc2[n+]1=O")
0.41
>>> assayvalue("CC1=C([Se]CC(OC(=O)[C@@H](CSSC(C)(C)C)NC(=O)C(C)(C)C)C(=O)NCCCCCC(=O)OCc2ccccc2)C(=O)c2ccccc2C1=O (stereo partly specified)")
0.68
>>> assayvalue("CN1CCN(CCCOc2ccc3ncnc(Nc4ccc(Oc5cccc(C(F)(F)F)c5)c(Cl)c4)c3c2)CC1")
0.51
